From: patent US12215173B2

Target: recombinant human mu (MOR) opioid receptor (Homo sapiens (Human), UniProt P35372)
Assay: Opioid receptor radioligand binding assay, MOR
Settings: HEK293 cell membranes, 0.5 nM [3H]DAMGO; read-out: MOR, IC50
Square brackets hold non-standard residues; d marks the D form. Peptide text beside a SMILES is read from it. * marks the point of attachment. ξ: configuration not given here. Piperidin1yl(4-NH2,4-CO2Me) = COC(=O)C1(N)CCN(*)CC1; Pyrrolidinyl(3-NH2,3-CO2Me) = COC(=O)C1(N)CCN(*)C1; dAla(cPr) = N[C@H](CC1CC1)C(=O)O; Aic = NC1(C(=O)O)Cc2ccccc2C1; ξL = CC(C)CC(N)C(=O)O
EXPERIMENTAL READOUT: log10 of IC50 (log10 of the value in µM)
Plainly stated, the numbers are log10 of IC50 given in µM.

Below: 3 compounds and their reported log10 of IC50.
| COMPOUND | log10 of IC50 |
| --- | --- |
| CC(C)C[C@@H](NC(=O)[C@@H](Cc1ccccc1)NC(=O)[C@H](N)Cc1ccccc1)C(=O)N[C@H](CCCCN)C(=O)N(C)C[C@H](O)[C@@H](O)[C@H](O)[C@H](O)CO | 0.05 |
| CCCC[C@@H](NC(=O)[C@@H](Cc1ccccc1)NC(=O)[C@H](N)Cc1ccccc1)C(=O)N[C@H](Cc1cnc(N)nc1)C(=O)N1CCC(N)(C(=O)OC)C1 (stereo partly shown) | 0.71 |
| COC(=O)C(=O)NC1CCN(C(=O)[C@@H](CCCCN)NC(=O)[C@@H](CC(C)C)NC(=O)[C@@H](Cc2ccccc2)NC(=O)[C@H](N)Cc2ccccc2)CC1 | -2.16 |

List the reported log10 of IC50 of each compound below.
1. COC(=O)C1(N)CCN(C(=O)[C@@H](CCCCN)NC(=O)C(CC(C)C)NC(=O)[C@@H](Cc2ccccc2)NC(=O)C2(N)Cc3ccccc3C2)C1 (stereo partly shown) [Compound 156] (H-[Aic][dF][ξL][dK]-{Pyrrolidinyl(3-NH2,3-CO2Me)})
2. COC(=O)C1(N)CCN(C(=O)[C@@H](CCCCN)NC(=O)[C@@H](CC2CC2)NC(=O)[C@@H](Cc2ccccc2)NC(=O)[C@H](N)Cc2ccccc2)CC1 [Compound 112] (H-[dF][dF][dAla(cPr)][dK]-{Piperidin1yl(4-NH2,4-CO2Me)})
3. COC(=O)C1(N)CCN(C(=O)[C@@H](CCCNC(=N)N)NC(=O)[C@H]2CCCN2C(=O)[C@@H](Cc2ccccc2)NC(=O)[C@H](N)Cc2ccccc2)CC1 [Compound 22] (H-[dF][dF][dP][dR]-{Piperidin1yl(4-NH2,4-CO2Me)})
4. CC(C)C[C@@H](NC(=O)[C@@H](Cc1ccccc1)NC(=O)[C@H](N)Cc1ccccc1)C(=O)N[C@H](CCCCN)C(=O)N1CCC(N)(C(=O)OCCO)C1 (stereo partly shown)
5. COC(=O)C1(N)CCN(C(=O)[C@@H](CCCCN)NC(=O)C(CC(C)C)NC(=O)[C@@H](Cc2ccccc2)NC(=O)C2(N)Cc3ccccc3C2)CC1 (stereo partly shown) [Compound 158] (H-[Aic][dF][ξL][dK]-{Piperidin1yl(4-NH2,4-CO2Me)})
6. COC(=O)/C=C/C(=O)N1CCN(C(=O)[C@@H](CCCCN)NC(=O)[C@@H](CC(C)C)NC(=O)[C@@H](Cc2ccccc2)NC(=O)[C@H](N)Cc2ccccc2)CC1

Key:
[0.73, -1.82, 0.71, 0.88, 0.73, 0.90]

Exercise: Fill in the recorded log10 of IC50 for this compound, with recombinant human mu (MOR) opioid receptor (Homo sapiens (Human), UniProt P35372) as test system: CC(C)C[C@@H](NC(=O)[C@@H](Cc1ccccc1)NC(=O)[C@H](N)Cc1ccccc1)C(=O)N[C@H](CCCCN)C(=O)N1CCN(C(=O)C(=O)NC2CC2)CC1
Key: -0.50
